Target: CaBem1-D1
Assay: SPOT peptide array binding signal intensity (averaged, normalized) (arbitrary units (background-subtracted, floor 0; scale differs between SH3 domains)); higher = stronger binding of the SH3 domain to the peptide
Examples of binders with documented SPOT peptide array binding signal intensity follow.
EXPERIMENTAL READOUT: SPOT peptide array binding signal intensity

• TKFRISLGLPVGAIM = 199
• APERAVPILPPRNNV = 2
• RPKRRAPPPVPKKPS = 78.5
• ITHRLRISIPGITGR = 84
• DKSRPPRPPPKPLHL = 120

Where do the numbers come from? From the supplement of paper PMC4466140.
